Reported pIC50 by item:
TARGET_OR_SYSTEM: Poly [ADP-ribose] polymerase tankyrase-1 (Homo sapiens, UniProt O95271)
Sequence (O95271 whole entry): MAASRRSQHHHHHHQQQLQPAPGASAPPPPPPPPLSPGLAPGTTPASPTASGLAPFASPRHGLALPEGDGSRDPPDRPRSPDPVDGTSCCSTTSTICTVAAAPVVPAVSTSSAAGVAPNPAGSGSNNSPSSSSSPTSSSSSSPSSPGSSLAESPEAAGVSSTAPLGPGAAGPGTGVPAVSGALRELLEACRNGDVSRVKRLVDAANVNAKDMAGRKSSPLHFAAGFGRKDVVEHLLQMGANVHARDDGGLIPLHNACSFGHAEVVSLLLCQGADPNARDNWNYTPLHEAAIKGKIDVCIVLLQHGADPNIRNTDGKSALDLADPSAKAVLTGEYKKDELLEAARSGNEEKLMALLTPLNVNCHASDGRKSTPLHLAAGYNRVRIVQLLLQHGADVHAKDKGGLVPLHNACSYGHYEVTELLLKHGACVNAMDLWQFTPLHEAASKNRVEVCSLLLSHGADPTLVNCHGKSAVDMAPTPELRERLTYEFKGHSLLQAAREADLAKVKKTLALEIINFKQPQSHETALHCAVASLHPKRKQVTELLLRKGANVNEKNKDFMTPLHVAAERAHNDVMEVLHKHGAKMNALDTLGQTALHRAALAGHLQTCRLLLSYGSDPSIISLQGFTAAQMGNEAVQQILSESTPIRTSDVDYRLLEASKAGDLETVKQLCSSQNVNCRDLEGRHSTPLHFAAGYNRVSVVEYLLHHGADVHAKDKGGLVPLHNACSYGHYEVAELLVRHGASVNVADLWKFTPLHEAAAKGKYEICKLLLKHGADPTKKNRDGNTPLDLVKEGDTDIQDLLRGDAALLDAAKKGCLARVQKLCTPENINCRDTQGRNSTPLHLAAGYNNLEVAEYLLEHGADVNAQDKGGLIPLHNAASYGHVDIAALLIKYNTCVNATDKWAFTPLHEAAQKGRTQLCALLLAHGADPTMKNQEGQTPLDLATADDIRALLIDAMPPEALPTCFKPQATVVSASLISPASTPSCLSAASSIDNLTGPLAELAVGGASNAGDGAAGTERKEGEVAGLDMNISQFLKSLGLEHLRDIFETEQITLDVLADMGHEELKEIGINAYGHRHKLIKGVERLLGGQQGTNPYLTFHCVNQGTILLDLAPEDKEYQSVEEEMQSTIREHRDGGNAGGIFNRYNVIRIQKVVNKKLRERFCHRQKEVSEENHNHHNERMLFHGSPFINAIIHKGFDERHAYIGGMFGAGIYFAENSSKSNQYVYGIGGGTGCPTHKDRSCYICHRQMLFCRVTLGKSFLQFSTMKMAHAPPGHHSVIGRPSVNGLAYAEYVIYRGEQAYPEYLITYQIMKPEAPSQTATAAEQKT
# pIC50: negative log10 of molar concentration; output just the value

O=c1[nH]c(N2CCC3(CC2)CNc2cccc(F)c23)nc2c1CCCC2 ... 8.36
COc1ccccc1N1CCN(c2nc3c(c(=O)[nH]2)CC(C)CC3)CC1 (stereo not drawn) ... 5.87

### Prompt Give its pIC50 value. Item: "COc1cccc(N2CCN(c3nc4c(c(=O)[nH]3)CCCC4)CC2)c1"
### Response 7.40

----------
ASSAY_NOTES: physchem
PROTOCOL_CONDITIONS: phosphate buffer, pH 7.4
Reported solubility at 1 h, 200 µM by item:
Field: numeric (µg/mL). Do not append units.

In the examples that follow, each entry is paired with its recorded solubility at 1 h, 200 µM.
COc1ccccc1N1CCN(c2nc3c(c(=O)[nH]2)CC(C)CC3)CC1 (configuration not stated) ... 1.8
COc1ccccc1N1CCN(c2nc3c(c(=O)[nH]2)CSCC3)CC1 ... 0.5
O=c1[nH]c(N2CCC3(CC2)COc2ccccc23)nc2c1CCCC2 ... 0.67

### Prompt Give its solubility at 1 h, 200 µM value. Item: "O=C1N(CCO)c2cc(F)cc(F)c2C12CCN(c1nc3c(c(=O)[nH]1)CCCC3)CC2"
### Response 76.9

### Prompt Next up: "O=C1Nc2cccc(Cl)c2C12CCN(c1nc3c(c(=O)[nH]1)CCCC3)CC2"
### Response 2.8

### Prompt Next up: "O=C1Nc2ccccc2C12CCN(c1nc3c(c(=O)[nH]1)CCCC3)CC2"
### Response 64.2

### Prompt Next up: "O=c1[nH]c(N2CCC3(CC2)CNc2cccc(F)c23)nc2c1CCCC2"
### Response 4.2

### Prompt Next up: "COc1ccccc1N1CCCN(c2nc3c(c(=O)[nH]2)CCCC3)CC1"
### Response 69.6
